- TARGET: PHL (Photorhabdus asymbiotica, UniProt C7BLE4)
- Sequence (C7BLE4 entry or part of it): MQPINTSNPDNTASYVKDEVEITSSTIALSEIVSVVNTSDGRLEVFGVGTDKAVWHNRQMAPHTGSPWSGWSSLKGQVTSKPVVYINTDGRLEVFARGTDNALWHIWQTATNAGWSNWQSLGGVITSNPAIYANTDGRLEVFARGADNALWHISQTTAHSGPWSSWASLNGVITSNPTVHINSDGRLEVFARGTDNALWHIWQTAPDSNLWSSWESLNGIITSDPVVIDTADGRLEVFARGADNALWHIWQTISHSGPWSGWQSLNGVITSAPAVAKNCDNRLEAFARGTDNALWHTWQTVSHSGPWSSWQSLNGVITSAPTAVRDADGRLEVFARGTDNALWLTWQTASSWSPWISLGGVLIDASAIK
- PROCEDURE_DETAILS: SPR competitive inhibition of PHL binding to α-L-fucoside sensor chip
- SETTINGS: relative to azide 1
PARAMETER_MEASURED: PotencyAzide1
Answers are plain numbers.

Here are 3 compounds together with their reported answers.
Request the reported PotencyAzide1 associated with C[C@@H]1O[C@@H](CCn2cc(COc3c4cc(C(C)(C)C)cc3Cc3cc(C(C)(C)C)cc(c3OCc3cn(CC[C@@H]5O[C@@H](C)[C@@H](O)[C@@H](O)[C@@H]5O)nn3)Cc3cc(C(C)(C)C)cc(c3OCc3cn(CC[C@@H]5O[C@@H](C)[C@@H](O)[C@@H](O)[C@@H]5O)nn3)Cc3cc(C(C)(C)C)cc(c3OCc3cn(CC[C@@H]5O[C@@H](C)[C@@H](O)[C@@H](O)[C@@H]5O)nn3)C4)nn2)[C@@H](O)[C@H](O)[C@@H]1O 59

Would you mind telling me what PotencyAzide1 value was observed for C[C@@H]1O[C@@H](CCn2cc(COCC(COCc3cn(CC[C@@H]4O[C@@H](C)[C@@H](O)[C@@H](O)[C@@H]4O)nn3)(COCc3cn(CC[C@@H]4O[C@@H](C)[C@@H](O)[C@@H](O)[C@@H]4O)nn3)COCc3cn(CC[C@@H]4O[C@@H](C)[C@@H](O)[C@@H](O)[C@@H]4O)nn3)nn2)[C@@H](O)[C@H](O)[C@@H]1O ? 65

// query PotencyAzide1 value for entry C[C@@H]1O[C@@H](CCn2cc(COCC(COCc3cn(CC[C@@H]4O[C@@H](C)[C@@H](O)[C@@H](O)[C@@H]4O)nn3)(COCc3cn(CC[C@@H]4O[C@@H](C)[C@@H](O)[C@@H](O)[C@@H]4O)nn3)COCC(COCc3cn(CC[C@@H]4O[C@@H](C)[C@@H](O)[C@@H](O)[C@@H]4O)nn3)(COCc3cn(CC[C@@H]4O[C@@H](C)[C@@H](O)[C@@H](O)[C@@H]4O)nn3)COCc3cn(CC[C@@H]4O[C@@H](C)[C@@H](O)[C@@H](O)[C@@H]4O)nn3)nn2)[C@@H](O)[C@H](O)[C@@H]1O 311

Consider now this further compound.
Query (compound): C[C@@H]1O[C@@H](CCn2cc(COc3c4cccc3Cc3cccc(c3OCc3cn(CC[C@@H]5O[C@@H](C)[C@@H](O)[C@@H](O)[C@@H]5O)nn3)Cc3cccc(c3OCc3cn(CC[C@@H]5O[C@@H](C)[C@@H](O)[C@@H](O)[C@@H]5O)nn3)Cc3cccc(c3OCc3cn(CC[C@@H]5O[C@@H](C)[C@@H](O)[C@@H](O)[C@@H]5O)nn3)C4)nn2)[C@@H](O)[C@H](O)[C@@H]1O ; field requested: PotencyAzide1 61
